# reported pIC50; entries follow
Target: GST-RIPK2 fusion protein (human RIPK2, amino acids 1-310) (Homo sapiens)
Construct: made in house; host or cells: baculovirus infected Sf9 cells
Sequence (O43353 1-310): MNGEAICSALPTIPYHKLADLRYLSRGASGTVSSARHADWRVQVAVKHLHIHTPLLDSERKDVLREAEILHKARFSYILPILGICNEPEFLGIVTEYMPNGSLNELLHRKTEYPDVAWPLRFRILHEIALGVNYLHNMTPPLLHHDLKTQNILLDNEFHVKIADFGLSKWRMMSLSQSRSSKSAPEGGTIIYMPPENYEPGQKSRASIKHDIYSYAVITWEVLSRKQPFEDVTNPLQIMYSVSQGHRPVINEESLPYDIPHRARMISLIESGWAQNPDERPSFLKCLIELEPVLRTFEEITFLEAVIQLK
Assay: RIPK2 binding competition assay (TR-FRET, Tracer 199 displacement)
Details: 10 nM Tracer 199, 1 nM GST-RIPK2, read-out: RIPK2 IC50
pIC50: −log10 of the molar value.

| compound | target_or_test_system | pIC50 |
| --- | --- | --- |
| COc1cc2ncc(-c3cc(F)c(N)nc3F)n2cc1S(=O)(=O)C(C)(C)CCO | GST-RIPK2 fusion protein (human RIPK2, amino acids 1-310) (Homo sapiens) | 7.70 to 8.60 |
| C=CS(=O)(=O)Nc1cc(-c2cnc3cc(OC)c(S(=O)(=O)C(C)(C)C)cn23)cc(OC)c1OC | GST-RIPK2 fusion protein (human RIPK2, amino acids 1-310) (Homo sapiens) | 8.60 to 9.00 |
| COc1cc2ncc(-c3cccc(NS(=O)(=O)C4(CO)CC4)c3)n2cc1S(=O)(=O)C(C)(C)C | GST-RIPK2 fusion protein (human RIPK2, amino acids 1-310) (Homo sapiens) | 7.70 to 8.60 |
| CC(C)(C)S(=O)(=O)c1cn2c(-c3cc(F)c(N)nc3F)cnc2cc1OCC1(O)CC1 | GST-RIPK2 fusion protein (human RIPK2, amino acids 1-310) (Homo sapiens) | 8.60 to 9.00 |
| COc1cc2ncc(-c3cc(F)c(OC)c4[nH]c(CCO)nc34)n2cc1S(=O)(=O)C(C)(C)C | GST-RIPK2 fusion protein (human RIPK2, amino acids 1-310) (Homo sapiens) | 8.60 to 9.00 |
| CC(CO)COc1cc2ncc(-c3cc(F)c(N)nc3F)n2cc1S(=O)(=O)C(C)(C)C (racemic) | GST-RIPK2 fusion protein (human RIPK2, amino acids 1-310) (Homo sapiens) | 8.60 to 9.00 |
| COc1cc2ncc(-c3cc(F)c(OC)c(NS(=O)(=O)C4(CO)CC4)c3)n2cc1S(=O)(=O)C(C)(C)C | GST-RIPK2 fusion protein (human RIPK2, amino acids 1-310) (Homo sapiens) | 8.60 to 9.00 |
